- Test system: FFA2/GPR43 (Homo sapiens, UniProt O15552)
- Construct: host or cells: Flp-In-293
- Sequence (O15552 whole entry): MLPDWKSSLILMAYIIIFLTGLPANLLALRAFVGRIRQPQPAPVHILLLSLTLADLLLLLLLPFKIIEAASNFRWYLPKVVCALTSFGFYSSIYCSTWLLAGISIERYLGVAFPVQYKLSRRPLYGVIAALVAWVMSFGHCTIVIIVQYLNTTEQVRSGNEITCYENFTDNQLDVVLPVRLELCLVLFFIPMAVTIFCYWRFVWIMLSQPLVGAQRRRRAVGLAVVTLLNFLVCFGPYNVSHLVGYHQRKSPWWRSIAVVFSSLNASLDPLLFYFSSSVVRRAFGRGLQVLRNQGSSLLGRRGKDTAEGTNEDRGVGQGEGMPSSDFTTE
- Measurement description: forskolin-stimulated cAMP accumulation assay, Flp-In-293 cells stably expressing FFA2/GPR43
- Assay type: cell-based
- Reported conditions: Flp-In-293; 50 µM compound; NA = not active up to 50 µM
Label rule, in plain words: inhibition at 50 µM of 40% and up is rule met, under 40% is rule not met.

Solved entries (count: 5):
Prompt line: Determine whether this compound has inhibition at 50 µM no lower than 40%: CC(=O)OCCN1C2=C(C(=O)CC(C)(C)C2)C(c2ccccc2)C2=C1CC(C)(C)CC2=O [1-13]
Response line: rule not met

Prompt line: Please tell me: is the compound CC1=C(C(=O)Nc2ccccn2)C(c2cccs2)C2=C(CCCC2=O)N1 (stereo not shown) [1-7] at or over 40% in terms of inhibition at 50 µM?
Response line: rule met

Prompt line: Item CC(Sc1nc(=O)c2c(CCCCCl)cc(=O)oc2[nH]1)C(=O)c1ccc(OCc2ccccc2)cc1 (stereo not shown) [3-4] with inhibition at 50 µM of 40% or above?
Response line: rule met

Prompt line: Does the compound O=C(CSc1nc(=O)c2c(CCCCCl)cc(=O)oc2[nH]1)OCc1ccccc1 [3-3] have recorded inhibition at 50 µM that is 40% or more?
Response line: rule met

Prompt line: Given CCN1CC2=C(C1=O)C(c1ccc(-c3ccccc3)cc1)C1=C(CC(C)(C)CC1=O)N2 (stereo not shown) [1-12] , state whether its inhibition at 50 µM is at least 40%.
Response line: rule not met

Further cases:
Prompt line: Say whether CCCNCC1=C(C(=O)OCC)C(c2ccc(-c3ccccc3)cc2)C2=C(CC(C)(C)CC2=O)N1 (stereo not shown) [1-11] shows inhibition at 50 µM of 40% or more.
Response line: rule met

Prompt line: inhibition at 50 µM >= 40% for CCOC(=O)C(OC(=O)C1=C(C)NC2=C(C(=O)CCC2)C1c1cccs1)c1ccccc1 (stereo not shown) [1-10] ?
Response line: rule not met

Prompt line: Reported inhibition at 50 µM reaches at least 40% for NC(=O)CSc1nc(=O)c2c(CCCCCl)cc(=O)oc2[nH]1 [3-5] ?
Response line: rule met

----------
- Test system: FFA2/GPR43 (Homo sapiens)
- Construct: host or cells: Flp-In-293
- Measurement description: forskolin-stimulated cAMP accumulation assay, Flp-In-293 cells stably expressing FFA2/GPR43
- Format: cell-based
- Reported conditions: Flp-In-293; mean ± SD; read-out: FFA2/GPR43 Emax, maximal inhibition of forskolin-stimulated cAMP (converted)
Observed property: Emax (%)
Record the value in %, omitting the unit from your answer.

Prompt line: Form field: reported Emax of O=c1[nH]c(=O)c2c(CCCCCl)cc(=O)oc2[nH]1 [2-7]
Response line: 88

Prompt line: Consider the molecule CCc1cc(=O)oc2[nH]c(=S)[nH]c(=O)c12 [2-2] and give its measured Emax.
Response line: 91

Prompt line: Look up Emax for this molecule: O=c1cc(CCCCCl)c2c(=O)[nH]c(=S)[nH]c2o1 [2-6]
Response line: 83

Prompt line: Give the measured Emax of CCCCc1cc(=O)oc2[nH]c(=S)[nH]c(=O)c12 [2-4] .
Response line: 93

// below: Emax requested for another molecule
Prompt line: Please look up its Emax: Cc1cc(=O)oc2[nH]c(=S)[nH]c(=O)c12 [2-1]
Response line: 87

----------
- Measurement description: cyclic voltammetry, electrooxidation potential
- Assay type: physicochemical
- Reported conditions: vs. Ag/Ag+; acetonitrile, glassy carbon electrode
- Method: Cyclic voltammetry experiments were carried out using a PARSTAT 2273 electrochemical system. A stationary glassy carbon disk electrode (d = 0.8 mm) served as the working electrode, while the counter electrode was a Pt wire. The oxidation potentials were measured relative to an Ag/Ag^+ reference electrode. Acetonitrile was dried over P2O5 and distilled; the distillate was stored over CaH2 and redistilled immediately prior to use. […]
Observed property: El.ox. pot. (single value) (V)
Reply numerically in V, unit not repeated.

Reference set (4 entries):
Prompt line: Can you look up the measured El.ox. pot. (single value) of CC(Sc1nc(=O)c2c(CCCCCl)cc(=O)oc2[nH]1)C(=O)c1ccc(OCc2ccccc2)cc1 (centres unmarked) for me?
Response line: 1.98

Prompt line: Endpoint output: El.ox. pot. (single value) of CCCCc1cc(=O)oc2[nH]c(SCC(=O)OCC)nc(=O)c12 . Value?
Response line: 1.97

Prompt line: Fill in the blank: the reported El.ox. pot. (single value) of O=c1[nH]c(=O)c2c(CCCCCl)cc(=O)oc2[nH]1 is ____.
Response line: 1.94

Prompt line: Any idea what its El.ox. pot. (single value) is? The molecule is NC(=O)CSc1nc(=O)c2c(CCCCCl)cc(=O)oc2[nH]1
Response line: 1.93

Next up:
Prompt line: Which value of El.ox. pot. (single value) has been reported for CCCCc1cc(=O)oc2[nH]c(=O)[nH]c(=O)c12 in the records?
Response line: 1.94

----------
Measured pEC50 of individual entries
- Test system: FFA3/GPR41 (Homo sapiens)
- Construct: host or cells: Flp-In-293
- Sequence (O14843 whole entry): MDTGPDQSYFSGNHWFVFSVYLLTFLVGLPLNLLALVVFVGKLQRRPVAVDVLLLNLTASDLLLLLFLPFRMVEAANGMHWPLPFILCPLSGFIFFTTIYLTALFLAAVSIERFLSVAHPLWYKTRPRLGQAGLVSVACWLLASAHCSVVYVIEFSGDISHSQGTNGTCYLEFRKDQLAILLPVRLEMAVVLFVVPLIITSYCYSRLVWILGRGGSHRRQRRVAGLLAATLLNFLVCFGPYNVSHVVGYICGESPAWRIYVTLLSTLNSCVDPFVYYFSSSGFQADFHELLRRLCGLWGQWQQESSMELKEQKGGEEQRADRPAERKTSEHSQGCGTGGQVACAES
- Measurement description: forskolin-stimulated cAMP accumulation assay, Flp-In-293 cells stably expressing FFA3/GPR41
- Format: cell-based
- Reported conditions: presence of 5 µM propionate; read-out: FFA3/GPR41 EC50 in the presence of propionate
Convention used: pEC50 is expressed as -log10 of the molar concentration.

Please review the following examples before continuing.
Prompt line: Can you look up the measured pEC50 of CC1=C(C(=O)Nc2ccccc2C)C(c2ccco2)C2=C(CCCC2=O)N1 (stereo not shown) [1-2] for me?
Response line: 6.24

Prompt line: Requested read-out: pEC50. Entry: CC1=C(C(=O)Nc2ccccc2C)C(c2cccs2)C2=C(CCCC2=O)N1 (stereo not shown) [1-1]
Response line: 6.19

Others:
Prompt line: Given the molecule CC1=C(C(=O)Nc2ccc(Cl)cc2Cl)C(c2ccco2)C2=C(CCCC2=O)N1 (stereo not shown) [1-4] , what is its reported pEC50?
Response line: 7.09

Prompt line: Field request: pEC50 | item: CC1=C(C(=O)Nc2cc(Cl)ccc2Cl)C(c2ccco2)C2=C(CCCC2=O)N1 (stereo not shown) [1-3]
Response line: 7.00

----------
Listing: El.ox. pot. (first, lower potential) of selected molecules
- Measurement description: cyclic voltammetry, electrooxidation potential
- Assay type: physicochemical
- Reported conditions: vs. Ag/Ag+; acetonitrile, glassy carbon electrode
Dear colleague, please return just the value in V, with no unit written.

Examples with answers:
Prompt line: Given the molecule CCOC(=O)C(OC(=O)C1=C(C)NC2=C(C(=O)CCC2)C1c1cccs1)c1ccccc1 (centres unmarked) , what is its reported El.ox. pot. (first, lower potential)?
Response line: 1.18

Prompt line: So what does the record say about El.ox. pot. (first, lower potential) for CCOC(=O)COC(=O)C1=C(C)NC2=C(C(=O)CCC2)C1c1cccs1 (centres unmarked) ?
Response line: 1.18

Prompt line: Tell me the measured El.ox. pot. (first, lower potential) of CC1=C(C(=O)Nc2ccccc2C)C(c2ccco2)C2=C(CCCC2=O)N1 (centres unmarked) , please.
Response line: 1.19

Prompt line: Returns the measured El.ox. pot. (first, lower potential) for the input molecule. Input: CC1=C(C(=O)Nc2ccc(Cl)cc2Cl)C(c2ccco2)C2=C(CCCC2=O)N1 (centres unmarked)
Response line: 1.24

Others:
Prompt line: Can you look up the measured El.ox. pot. (first, lower potential) of CC1=C(C(=O)Nc2ccccc2C)C(c2cccs2)C2=C(CCCC2=O)N1 (centres unmarked) for me?
Response line: 1.19

----------
- Test system: IL-6 mRNA
- Measurement description: LPS-induced IL-6 gene expression in THP-1 macrophages (qRT-PCR)
- Assay type: cell-based, human
- Reported conditions: compound 50 µg/mL; 4 h LPS; LPS-treated cells = 100%
Threshold rule: decrease in IL-6 mRNA greater than or equal to 70% is MET; below that, NOT MET.

Prompt line: decrease in IL-6 mRNA >= 70% for CC1=C(C(=O)Nc2ccc(Cl)cc2Cl)C(c2ccco2)C2=C(CCCC2=O)N1 (stereo not drawn) [1-4] ?
Response line: NOT MET

Prompt line: Can CC(Sc1nc(=O)c2c(CCCCCl)cc(=O)oc2[nH]1)C(=O)c1ccc(OCc2ccccc2)cc1 (stereo not drawn) [3-4] be said to have decrease in IL-6 mRNA at or above 70%?
Response line: NOT MET

Prompt line: Quick check, decrease in IL-6 mRNA >= 70%? CC1=C(C(=O)Nc2ccccc2C)C(c2cccs2)C2=C(CCCC2=O)N1 (stereo not drawn) [1-1]
Response line: NOT MET

Prompt line: # bool: decrease in IL-6 mRNA of CC1=C(C(=O)Nc2ccccc2C)C(c2ccco2)C2=C(CCCC2=O)N1 (stereo not drawn) [1-2] >= 70%
Response line: MET

Prompt line: Hi, just wondering whether O=c1[nH]c(=O)c2c(CCCCCl)cc(=O)oc2[nH]1 [2-7] shows decrease in IL-6 mRNA of 70% or higher.
Response line: MET

Continue with the compound presented below.
Prompt line: Given the entry O=C(CSc1nc(=O)c2c(CCCCCl)cc(=O)oc2[nH]1)OCc1ccccc1 [3-3] , answer whether its decrease in IL-6 mRNA meets or surpasses 70%.
Response line: NOT MET
